Test: A549 cell viability effects, profiling panel, calcein-AM fluorescence, 48 h, basal (AID 1162); further: test concentration not given here
Conditions: higher = more signal
Answer NOT MET if z-score is under -0.3, and MET if it is -0.3 or more.

Molecule | Answer label
COc1ccc(NN2C(C(O)c3ccc([N+](=O)[O-])cc3)C=CC3C(=O)N(C4CCCCC4)C(=O)C32)cc1 (stereo not drawn) | MET
CCOC(=O)C1=CCC(c2ccc(C)cc2)N(S(=O)(=O)c2ccc(C)cc2)C1 (stereo not drawn) | NOT MET
O=C1c2ccccc2[C@@]2(Cc3ccccc3N(CC(F)(F)F)C2=O)[C@H](c2ccc(CO)cc2)N1Cc1ccccc1Cl | MET
COC(=O)c1c(CC[C@@H](CO)NC(=O)N[C@@H](C)Cn2cc(C3(O)CCCCC3)nn2)oc(C(C)=O)c1C(=O)OC | MET
C#CCNC(=O)[C@H](Cc1ccccc1)NC(=O)CCC(=O)O | MET
[N-]=[N+]=Nc1ccccc1C[C@]1(C(N)=O)N=C(c2ccc(OCCCO)cc2)O[C@H]1c1ccccc1 | MET
COc1ccc(C(=O)Nc2cccc(CN3C(=O)[C@]4(O[C@H](CCO)[C@@H]([Si](C)(C)c5ccc(OC)cc5)[C@@H]4C)c4ccccc43)c2)cc1 | NOT MET

###

Experiment: inhibitors of hydroxyurea-induced Chk1 phosphorylation, primary screen, imaging, HeLa, phospho-Chk1 nuclear intensity (AID 1187); further: test concentration not given here
Settings: hydroxyurea-induced phospho-Chk1 immunofluorescence imaging, higher = more signal

Compound | z-score
NCCCCCNC(=O)[C@@H]1C[C@@H]2C(=O)N[C@@H](Cc3ccccc3)C(=O)N2[C@@H]1c1cccc(OCCO)c1 | -0.223
O=C1NC(=O)C2C1C=CC(C(O)c1cccc3ccccc13)N2Nc1ccccn1 (centres undefined) | -0.382
C#CCN(Cc1ccccc1Br)C(/C=C/c1ccccc1)CO (centres undefined) | -0.323
COCC(=C=CC[C@@H](O)c1ccccc1OCCO)C[C@@H](O)c1cc(Cl)cc(Cl)c1O | 0.377

###

Assay: inhibitors of hydroxyurea-induced Chk1 phosphorylation, primary screen, imaging, HeLa, phospho-Chk1 nuclear intensity (AID 1187); further: test concentration not given here
Settings: hydroxyurea-induced phospho-Chk1 immunofluorescence imaging, higher = more signal
Answer f if z-score is under -0.08, and t if it is -0.08 or more.

Compound | Answer label
CCCCc1cn(C[C@H](Cc2ccccc2)NC(=O)N[C@H](CO)CCc2oc(C(C)=O)c(C(=O)OC)c2C(=O)OC)nn1 | f
COc1ccc(C(=O)Nc2ccc(CN3C(=O)[C@@]4(O[C@@H](CCO)[C@H]([Si](C)(C)c5ccc(OC)cc5)[C@H]4C)c4ccccc43)cc2)cc1 | t
COC(=O)[C@@]1(Cc2ccc(F)cc2)[C@H]2c3cc(C(=O)N(C)C)n(Cc4nc5ccccc5[nH]4)c3C[C@H]2CN1C(=O)c1ccccc1 | t
CC(C)C[C@@H]1NC(=O)[C@H]2C[C@@H](C(=O)NCCCCCCN)[C@@H](c3ccc(O)cc3)N2C1=O | f
C=CC[C@@]1(C(=O)NCc2ccccc2)N=C(c2ccc(OCCCO)cc2)O[C@@H]1c1ccccc1N=[N+]=[N-] | f
CCOC1=C2C(CN(S(=O)(=O)c3ccc(C)cc3)C2c2ccc(C)cc2)C2C(=O)N(c3ccccc3)C(=O)C2C1 (stereo not given) | t
CN(C)C(=O)[C@@]1(Cc2ccccc2)N=C(c2ccc(OCCCO)cc2)O[C@H]1c1ccccc1N=[N+]=[N-] | f
[N-]=[N+]=NCc1ccccc1[C@@H]1OC(c2ccc(OCCCO)cc2)=N[C@]1(CCS(=O)(=O)c1ccccc1)C(=O)NCCN1CCOCC1 | f
O=C(O)[C@@]1(CCS(=O)(=O)c2ccccc2)COC(c2ccc(OCCCO)cc2)=N1 | f
COCCOC(=O)N1C(=O)[C@@]2(c3cc(C#CCCO)ccc31)[C@H](C(=O)N1CCN(c3ncccn3)CC1)[C@H]1C(=O)O[C@H](c3ccccc3)[C@H](c3ccccc3)N1[C@@H]2c1ccccc1OCCO | t
COc1ccc(C(O)C2C=CC3C(=O)N(c4ccccc4)C(=O)C3N2Nc2ccccc2F)cc1OCc1ccccc1 (stereo not given) | f
CCOC(=O)C[C@H]1[C@H](OC(=O)Cc2ccc3c(c2)OCO3)[C@@H](NC(=O)c2ccc(-c3ccccc3)cc2)c2cc(OCCCO)ccc2N1C(=O)c1ccc2ccccc2n1 | t
C=C(COC)/C(=C/C[C@@H](OC(C)=O)c1ccc(CO)o1)c1cnc2ccccc2c1 | f
C=CCC(OC(C)=O)[C@@H]1[C@@H](N(Cc2cccc3ccccc23)C(=O)c2ccc(-c3ccccc3)cc2)c2cc(OCCCO)ccc2N1C(=O)Cc1ccc(OC)cc1 (stereo not given in full) | f
O=C(NCc1ccccc1)[C@@]1(Cc2ccccc2)N=C(c2ccc(OCCCO)cc2)O[C@H]1c1ccccc1 | t
